- study system: G5N R335E (Homo sapiens, UniProt Q8TEQ6 1-726, R335E)
- Sequence (Q8TEQ6 1-726 R335E): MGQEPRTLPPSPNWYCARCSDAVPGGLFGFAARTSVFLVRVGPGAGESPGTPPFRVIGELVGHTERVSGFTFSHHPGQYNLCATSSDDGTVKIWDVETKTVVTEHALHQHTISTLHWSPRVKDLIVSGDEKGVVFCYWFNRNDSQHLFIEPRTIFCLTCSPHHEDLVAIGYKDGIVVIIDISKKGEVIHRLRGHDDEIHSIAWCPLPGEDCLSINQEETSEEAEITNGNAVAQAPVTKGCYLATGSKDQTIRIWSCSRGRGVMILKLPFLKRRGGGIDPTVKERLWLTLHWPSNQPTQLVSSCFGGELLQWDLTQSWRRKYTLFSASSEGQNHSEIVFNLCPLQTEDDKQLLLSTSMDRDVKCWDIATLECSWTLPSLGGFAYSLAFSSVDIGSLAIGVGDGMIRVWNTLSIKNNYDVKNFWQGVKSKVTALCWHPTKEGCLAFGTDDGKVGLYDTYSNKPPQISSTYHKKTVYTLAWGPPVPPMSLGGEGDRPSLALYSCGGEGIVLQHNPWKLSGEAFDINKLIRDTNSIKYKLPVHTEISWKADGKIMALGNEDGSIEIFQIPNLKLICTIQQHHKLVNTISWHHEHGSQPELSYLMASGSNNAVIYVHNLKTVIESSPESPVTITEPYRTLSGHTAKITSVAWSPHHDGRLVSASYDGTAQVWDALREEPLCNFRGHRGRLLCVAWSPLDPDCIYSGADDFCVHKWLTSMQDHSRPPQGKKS
- assay explanation: FP
endpoint label: Kd (µM)
Report only the number, with the unit µM understood.

[in] Which Kd value is on record for GCAAUUUUUGACA (ssRNA) [U4 13-mer, FITC] ?
[out] 96.7

Where do the numbers come from? From paper PMC5131779.
